# Test system: THP-1
# measurementNotes: Antiproliferative activity against human THP-1 cells assessed as inhibition of cell growth incubated for 72 hrs by MTT assay
# Type: functional, cell-based
# conditionParameters: THP-1, 72 h
property: pIC50
One number for each entry, as −log10 of the molar value.

# annotated cases, reported pIC50 shown
Cc1nccnc1C(=O)/C=C/c1ccc2c(c1)OC(F)(F)O2 :: 5.23
Cc1nccnc1C(=O)/C=C/c1ccc(-c2ccccc2)cc1 :: 5.12
CSc1ccc(/C=C/C(=O)c2nccnc2C)cc1 :: 5.22
CCc1nccnc1C(=O)/C=C/c1cccc(C)c1 :: 5.11

// next item, pIC50 requested
Look up pIC50 for this molecule: O=C(/C=C/c1csc2ccccc12)c1cnccn1
5.06
